Test: basal RPMI8226 viability, no added stimulus, profiling panel, cell-based, calcein-AM fluorescence, 48 h, PK04 Diversity Set (AID 1166);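 further: cells grown under basal conditions without added stimulus; test concentration not given here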
Settings: RPMI8226 myeloma viability, higher = more signal
Below: a set of entries, each annotated with reported z-score.
Property Measured: z-score

{"columns": ["Compound", "Numeric Value"],
 "data": [
  ["CCCCCCc1nc(C2CC2)c(C)c2c1[Si](C(C)C)(C(C)C)OC2", -0.499],
  ["O=C1c2ccccc2[C@](Cc2ccccc2I)(C(=O)NCC(F)(F)F)[C@H](c2ccc(CO)cc2)N1Cc1ccccc1C(F)(F)F", -2.27],
  ["CCCC[C@H]1OB(O)C[C@H]2C1=C(COC)C[C@H]1C(=O)N(Cc3ccccc3)C(=O)[C@H]12", -0.537],
  ["COC(=O)C1=CC(c2ccc(CO)cc2)=CC(C2CC2)N(Cc2sc3ccccc3c2Cl)C=C1C(=O)OC (centres undefined)", -4.22],
  ["COC(=O)Cn1c(C(=O)N2CCCC2)cc2c1C[C@H]1CN(C(=O)c3ccccc3)[C@@](Cc3ccccc3)(C(=O)OC)[C@@H]21", -0.256],
  ["CC(=O)Nc1ccc([C@H]2[C@H](C)CC[C@H]3C(=O)N4[C@@H](CC[C@@H](C)[C@@H]4c4ccc(NC(C)=O)cc4)C(=O)N32)cc1", -0.439],
  ["CCCC=C(CCC)[C@@H](NC(=O)c1ccc(C(F)(F)F)cc1)c1ccccc1", -2.58],
  ["C=CCC(OC(C)=O)[C@@H]1[C@@H](N(Cc2cc3ccccc3o2)C(=O)c2ccc(C)cc2)c2cc(OCCCO)ccc2N1C(=O)c1ccc2ccccc2n1 (some centres undefined)", 1.09],
  ["O=C/C=C/c1ccc(/C=C/c2ccccc2)cc1", -4.46],
  ["COc1ccc(C(=O)Nc2ccc(CN3C(=O)[C@]4(O[C@H](CCn5cc(CCO)nn5)[C@@H]([Si](C)(C)c5ccc(OC)cc5)[C@@H]4C)c4ccccc43)cc2)cc1", -4.37],
  ["C=CC[C@]1(C(N)=O)N=C(c2ccc(OCCCO)cc2)O[C@H]1c1ccccc1CN=[N+]=[N-]", -1.37],
  ["O=C1C[C@@](C(=O)NCCN2CCOCC2)(c2ccc([N+](=O)[O-])cc2)[C@@H](c2ccc(CO)cc2)N1C1CCCCC1", 0.633],
  ["C=CCNC(=O)[C@@H]1[C@H]2C(=O)O[C@H](c3ccccc3)[C@H](c3ccccc3)N2[C@H](c2ccc(OCCO)cc2)[C@@]12C(=O)N(C(=O)OCCOC)c1ccc(C#CC3(O)CCCCCC3)cc12", -1.16],
  ["CN1C(=O)C2C=CC(C(O)c3ccc(N(C)C)cc3)N(Nc3ccc([N+](=O)[O-])cc3[N+](=O)[O-])C2C1=O (centres undefined)", -0.4],
  ["O=C(NCC(O)CO)[C@]1(Cc2ccccc2)N=C(c2ccc(OCCCO)cc2)O[C@@H]1c1ccccc1 (some centres undefined)", -1.08],
  ["C=CCN1C(=O)[C@@]2(Cc3ccccc3)N=C(c3ccc(OCCCO)cc3)O[C@H]2c2ccccc21", -3.94],
  ["COCCOC(=O)N1C(=O)[C@@]2(c3cc(C#CCC(C(=O)OC)C(=O)OC)ccc31)[C@H](C(=O)N1CCN(c3ncccn3)CC1)[C@H]1C(=O)O[C@H](c3ccccc3)[C@H](c3ccccc3)N1[C@@H]2c1ccc(O)cc1", -0.188],
  ["COc1ccc([Si](C)(C)[C@H]2[C@H](CC(=O)N(CCO)Cc3ccccc3)O[C@@]3(C(=O)N(C)c4ccccc43)[C@@H]2C)cc1", -3.42],
  ["[N-]=[N+]=Nc1ccccc1C[C@@]1(C(=O)N2CCOCC2)N=C(c2ccc(OCCCO)cc2)O[C@@H]1c1ccccc1N=[N+]=[N-]", -4.53],
  ["CC(C)NC(=O)[C@@]1(Cc2ccccc2I)c2ccccc2C(=O)N(C2CCCCC2)[C@H]1c1ccc(CO)cc1", -3.89],
  ["CC[C@H]1C2=C3C(CC[C@H]4C(OC)OC[C@](C)([C@@H]34)N(C(=O)OC(C)(C)C)C2)C(CO)C1CO (some centres undefined)", 0.586],
  ["CCCC=C(CCC)[C@@H](NS(=O)(=O)c1ccc(-c2ccccc2)cc1)c1ccc(C(=O)OC)cc1", -2.93],
  ["CC(=O)NCCCC[C@@H]1NC(=O)[C@H]2C[C@@H](C(=O)NCCCCCCN(C)C)[C@@H](c3cccc(OCCO)c3)N2C1=O", 0.079],
  ["Cc1ccc(S[C@]2(C(=O)O)CC(=O)N(Cc3cc(C(F)(F)F)cc(C(F)(F)F)c3)[C@@H]2c2ccc(CO)cc2I)cc1", -2.22],
  ["C[C@@H]1CC[C@H]2C(=O)N3[C@@H](CC[C@@H](C)[C@@H]3c3cccc(N4CCOCC4)c3)C(=O)N2[C@H]1c1cccc(Br)c1", -1.3],
  ["NC(=O)NCC#Cc1ccc2c(c1)[C@]1(C(=O)N2)[C@H](C(N)=O)[C@H]2C(=O)O[C@H](c3ccccc3)[C@H](c3ccccc3)N2[C@@H]1c1ccccc1OCCO", -0.186],
  ["[N-]=[N+]=NCc1ccccc1C[C@@]1(C(=O)O)N=C(c2ccc(OCCCO)cc2)O[C@@H]1c1ccccc1N=[N+]=[N-]", -2.27],
  ["C=C(CCCC)/C(=C/C[C@@H](OC(=O)c1ccncc1)c1cccc(OCCO)c1)c1cc(C(=O)OC)ccc1OC", -2.99],
  ["CO[C@H]1COC(=O)[C@@H](C)NC(=O)CC=C[C@@H](C)[C@H](OC)COC(=O)CC=C[C@@H]1C", 0.771]
]}
